Could you please report measured MIC for the items listed next?
Tested on: Mycolicibacterium smegmatis
RUN_DESCRIPTION: Antimycobacterial activity against Mycobacterium smegmatis MC2 155 in solid medium by two-fold serial dilution method
Assay type: functional
Give bare numbers, in µM.

A selection of reference data follows.
Quick one: give measured MIC for c1cn(-c2nnc3nccn3n2)cn1 134

Supply MIC value. Item: Cc1cc(C)n(-c2nnc3ncc(SC(C)C)n3n2)n1 221

Tell me its MIC given Cc1cn(-c2nnc3ncc(SC(C)C)n3n2)cn1 as the entry. 90.8

Specify MIC for Cc1cc(C)n(-c2nnc3ncc(Sc4ccccc4)n3n2)n1 and stop. 61.8

Continuing:
Supply reported MIC belonging to this compound: Cc1cc(C)n(-c2nnc3ncc(SCc4ccccc4)n3n2)n1 59.3
